Assay Method Text: CCTE_Shafer_MEA_acute_per_network_burst_spike_number_std: CCTE's Neural Acute Assay for Standard Deviation of Number of Spikes in a Network Burst, Shafer Lab (AID 2284020);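 note: fitted for decrease in spike-number SD versus DMSO so actives lower it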
The source made the active and inactive calls. Rule for the calls: active = hit-call score of the fitted dose curve at least 0.9, where 1 is the maximum; inactive = score below 0.9.
Response enum: Yes for active, No for inactive

| Compound | Qualitative Label |
| --- | --- |
| CCOc1ccc(C(C)(C)COCc2cccc(Oc3ccccc3)c2)cc1 | No |

Dear all, I need the recorded test outcome for `[N-]=[N+]=[N-]` , thank you.
No

Record request — test call for `COP(=O)(CCC(=O)NCO)OC`
No

Could you kindly confirm the outcome this assay logged for CCC1(c2ccccc2)C(=O)N=C(O)NC1=O (stereo not given) ?
No

Call for entry CCOP(=S)(Oc1ccc([N+](=O)[O-])cc1)c1ccccc1 (stereo not given) :
No

Dear colleague, could you share the recorded outcome for `CC(Cl)(Cl)C(=O)O` when you have a moment?
No

Outcome? `ClC(Cl)(Cl)c1ccccc1`
No

----------
Read-out: Macrophage colony-stimulating factor (MCSF), CSF1 (gene 1435)
Assay Method Text: BSK_LPS_MCSF: BioMAP Diversity Plus: LPS Assay for Macrophage colony-stimulating factor (MCSF) Biomarker Activity (AID 2283083)
Test Settings: primary human HUVEC with PBMC; actives raise or lower the signal
Calls of active or inactive are those of the source. How the source made its calls: active means hit-call score of the fitted dose curve at least 0.9, where 1 is the maximum; inactive means score below 0.9.
Allowed answers: Yes (active), No (inactive)

Field: outcome | Entry: `N#Cc1cc([N+](=O)[O-])ccc1N`
No

Assay outcome for `CC(C)(C)c1ccccc1OP(=O)(Oc1ccccc1)Oc1ccccc1` : what was it?
Yes

Kindly provide the recorded test outcome for the following compound: `O=C(O)C(F)(F)OC(F)(F)C(F)(F)OC(F)(F)C(=O)O`
No

Just curious, what result did FC(F)(F)C(F)(C(F)(F)F)C(F)(F)C(F)(F)CC1CO1 (stereo not drawn) get here?
No

Called result for `Cc1cccc(N)c1`
No

----------
Tested On: Estrogen receptor (Homo sapiens) (UniProt P03372)
Sequence (P03372 whole entry, looked up): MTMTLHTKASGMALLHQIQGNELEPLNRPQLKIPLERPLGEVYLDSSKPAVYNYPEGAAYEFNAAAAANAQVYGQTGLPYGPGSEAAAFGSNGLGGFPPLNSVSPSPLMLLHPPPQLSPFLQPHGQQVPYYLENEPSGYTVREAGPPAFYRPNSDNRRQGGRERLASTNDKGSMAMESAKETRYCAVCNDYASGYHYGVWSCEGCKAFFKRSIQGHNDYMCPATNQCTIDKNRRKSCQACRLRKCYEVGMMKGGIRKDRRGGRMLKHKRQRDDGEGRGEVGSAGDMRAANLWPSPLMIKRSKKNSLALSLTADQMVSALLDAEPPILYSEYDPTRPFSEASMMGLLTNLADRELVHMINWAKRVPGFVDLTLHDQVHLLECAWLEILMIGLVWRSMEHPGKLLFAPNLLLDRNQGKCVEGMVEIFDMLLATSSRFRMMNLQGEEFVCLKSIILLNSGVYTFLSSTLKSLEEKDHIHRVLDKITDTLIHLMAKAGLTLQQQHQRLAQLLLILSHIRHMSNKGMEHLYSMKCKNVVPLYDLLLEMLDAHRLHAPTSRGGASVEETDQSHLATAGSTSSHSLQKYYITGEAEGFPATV
Assay Method Text: CCTE_Deisenroth_AIME_384WELL_LUC_Inactive: CCTE's 384-well Estrogen Receptor Transactivation Assay without AIME metabolic competence (ERTA luciferase; metabolism negative), Deisenroth Lab (AID 2284038);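 note: VM7Luc4E2 breast cells given medium preincubated 2 h with S9-free microspheres; hits raise estrogen receptor luciferase signal so potencies reflect agonists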
Records with an inconclusive call do not appear. Activity calls are given as the source filed them. Rule for the calls: active = hit-call score of the fitted dose curve at least 0.9, where 1 is the maximum; inconclusive = response in the unintended direction; inactive = score below 0.9.
Mark one answer only. Choices: T = active, F = inactive

The examples below pair each entry with its known result.
| Compound | Qualitative Label |
| --- | --- |
| COCCOCCO | F |
| Nc1ccc(Cl)cc1 | F |
| O=C(O)CF | F |

For `O=[N+]([O-])c1ccccc1` , what call appears in the results of this test?
F

Hi, sorry to bother you, what did the test record for CCOP(=S)(Oc1ccc([N+](=O)[O-])cc1)c1ccccc1 (stereo not drawn) ?
T

Hi team, can someone confirm the assay call for `CCOS(=O)(=O)OCC` ?
F

What classification did CCCCOCC1CO1 (stereo not drawn) end up with in this test?
T

----------
Assay Method Text: ATG_FoxO_CIS: Attagene CIS-FACTORIAL HepG2 Assay for human Forkhead box O (FoxO) (AID 2282943)
Test Settings: HepG2 Attagene cis-reporter, FoxO element, mRNA; actives raise or lower the signal
Calls of active or inactive are those of the source. How the source made its calls: active means hit-call score of the fitted dose curve at least 0.9, where 1 is the maximum; inactive means score below 0.9.
Answer with one of the outcomes active, inactive

| Molecule | Qualitative Label |
| --- | --- |
| O=C(O)C(F)(F)OC(F)(F)C(F)(F)OC(F)(F)C(=O)O | inactive |
| CCOP(=O)(O)C(N)=O | inactive |
| O=S1(=O)OCC2C(CO1)C1(Cl)C(Cl)=C(Cl)C2(Cl)C1(Cl)Cl (stereo not drawn) | inactive |
| CC(C)(C)c1ccc(O)cc1 | inactive |
| O=NN1CCCC1 | inactive |
| CN(C)C(=O)Cl | inactive |
| CCC(C)(C)c1ccc(O)cc1 | inactive |
| CC(=O)CCc1ccc2c(c1)OCO2 | inactive |

Please share the test call associated with `O=[N+]([O-])c1ccc(Cl)c(Cl)c1` .
inactive

# fetch the recorded call for `Nc1ccc([N+](=O)[O-])cc1Cl` here
inactive

What classification did `Clc1ccc(Oc2ccccc2)cc1` end up with in this test?
inactive

Which outcome did this test record for the molecule `CCOP(=S)(OCC)SCS(=O)(=O)CC` ?
inactive
